system: N1E-115; assay: Evaluated for its antagonistic activity against the NT-stimulated cyclic [3H]GMP formation in murine N1E-115 neuroblastoma cells; type: functional, cell-based, Mus musculus
pKi: −log10 of the molar value.
endpoint-label: pKi

1) Cc1ccc(S(=O)(=O)NCCNC2(c3ccccc3)OC(=O)c3ccccc32)cc1 (stereo unspecified): 5.36
